Test: in vitro
Type: in vitro ADME, canine
Conditions: dog, MDCK, pH 7.4, wild type MDCK; read-out: Recovery A>B Mean
Procedure: internal standard at each timepoint. […] including an analytical internal standard. Apparent permeability (Papp) values were determined from the relationship: […] Efflux ratios (Papp B>A / Papp A>B) were calculated for each compound from the […] order to confirm the involvement of MDR1 in any efflux seen, an “ef fective efflux ratio” (EER) was calculated by comparing compound efflux ratios (ER) in the two cell types, i.e. EER = ER (MDR1-MDCK)/ ER (wild-type MDCK). […]
MEASUREMENT_NAME: recovery at 1 h, 10 µM

{"COMPOUND": "CC[C@]1(O)C[C@@H]2CN(CCc3c([nH]c4ccccc34)[C@@](C(=O)OC)(c3cc4c(cc3OC)N(C)[C@H]3[C@@](O)(C(=O)OC)[C@H](OC(C)=O)[C@]5(CC)C=CCN6CC[C@]43[C@@H]65)C2)C1 [Vinblastine, reference compound]", "READING": "46.5%"}
{"COMPOUND": "Cn1c(C(=O)N[C@@H](C(=O)O)c2ccccc2)cc2cc(F)ccc21", "READING": "81%"}
{"COMPOUND": "Oc1ccc(-c2csc3nc(-c4ccccc4)nn23)c(O)c1", "READING": "15%"}
